test system: PC-3 [JPC-3]; assay: relative viability (nuclei count vs DMSO), 5 days (fraction); higher = more cells survive; conditions: first compound 0.1265 µM
// reported relative viability per item
result type: relative viability

>>> test_value("Cc1sc2c(c1C)C(c1ccc(Cl)cc1)=N[C@@H](CC(=O)OC(C)(C)C)c1nnc(C)n1-2 [JQ1] + CS(=O)(=O)N1CCN(Cc2cc3nc(-c4cccc5[nH]ncc45)nc(N4CCOCC4)c3s2)CC1 [Pictilisib] (partner 1 µM)")
0.727
>>> test_value("Cc1sc2c(c1C)C(c1ccc(Cl)cc1)=N[C@@H](CC(=O)OC(C)(C)C)c1nnc(C)n1-2 [JQ1] + Nc1nc2[nH]cc(CCc3ccc(C(=O)N[C@@H](CCC(=O)O)C(=O)O)cc3)c2c(=O)[nH]1 [Pemetrexed] (partner 0.2 µM)")
1.12
